# measurementProtocol: physchem
# conditionDetails: pH 7.4
measurementLabel: solubility (µg/mL)
Your answer should be a plain number; it is taken to be in µg/mL.

**Q:** Any idea what solubility was measured for CCOc1cc(N(CC(=O)O)S(=O)(=O)c2ccc(OC)cc2)ccc1N(CC(=O)O)S(=O)(=O)c1ccc(OC)cc1 [Compound 31] ?
**A:** 337

**Q:** Let us now turn to CCCOc1cc(N(CC(=O)O)S(=O)(=O)c2ccc(OC)cc2)ccc1N(CC(=O)O)S(=O)(=O)c1ccc(OC)cc1 [Compound 36]
**A:** 347

**Q:** Let us now turn to COc1ccc(S(=O)(=O)N(CC(=O)O)c2ccc(N(CC(=O)O)S(=O)(=O)c3ccc(OC)cc3)c(Oc3ccccc3)c2)cc1 [Compound 33]
**A:** 363

**Q:** Let us now turn to COc1ccc(S(=O)(=O)N(CC(=O)O)c2ccc(N(Cc3nnn[nH]3)S(=O)(=O)c3ccc(OC)cc3)c(OCc3ccccc3)c2)cc1 [Compound 52]
**A:** 256

**Q:** Let us now turn to COc1ccc(S(=O)(=O)N(Cc2nnn[nH]2)c2ccc(N(CC(=O)O)S(=O)(=O)c3ccc(OC)cc3)c(OCc3ccccc3)c2)cc1 [Compound 51]
**A:** 254

src = paper PMC9150106
